pKd: −log10 of the molar value.
# Epidermal growth factor receptor (Homo sapiens, UniProt P00533, L747-S752DEL/P753S): pKd values follow
# Sequence (P00533 whole entry L747-S752del/P753S, looked up): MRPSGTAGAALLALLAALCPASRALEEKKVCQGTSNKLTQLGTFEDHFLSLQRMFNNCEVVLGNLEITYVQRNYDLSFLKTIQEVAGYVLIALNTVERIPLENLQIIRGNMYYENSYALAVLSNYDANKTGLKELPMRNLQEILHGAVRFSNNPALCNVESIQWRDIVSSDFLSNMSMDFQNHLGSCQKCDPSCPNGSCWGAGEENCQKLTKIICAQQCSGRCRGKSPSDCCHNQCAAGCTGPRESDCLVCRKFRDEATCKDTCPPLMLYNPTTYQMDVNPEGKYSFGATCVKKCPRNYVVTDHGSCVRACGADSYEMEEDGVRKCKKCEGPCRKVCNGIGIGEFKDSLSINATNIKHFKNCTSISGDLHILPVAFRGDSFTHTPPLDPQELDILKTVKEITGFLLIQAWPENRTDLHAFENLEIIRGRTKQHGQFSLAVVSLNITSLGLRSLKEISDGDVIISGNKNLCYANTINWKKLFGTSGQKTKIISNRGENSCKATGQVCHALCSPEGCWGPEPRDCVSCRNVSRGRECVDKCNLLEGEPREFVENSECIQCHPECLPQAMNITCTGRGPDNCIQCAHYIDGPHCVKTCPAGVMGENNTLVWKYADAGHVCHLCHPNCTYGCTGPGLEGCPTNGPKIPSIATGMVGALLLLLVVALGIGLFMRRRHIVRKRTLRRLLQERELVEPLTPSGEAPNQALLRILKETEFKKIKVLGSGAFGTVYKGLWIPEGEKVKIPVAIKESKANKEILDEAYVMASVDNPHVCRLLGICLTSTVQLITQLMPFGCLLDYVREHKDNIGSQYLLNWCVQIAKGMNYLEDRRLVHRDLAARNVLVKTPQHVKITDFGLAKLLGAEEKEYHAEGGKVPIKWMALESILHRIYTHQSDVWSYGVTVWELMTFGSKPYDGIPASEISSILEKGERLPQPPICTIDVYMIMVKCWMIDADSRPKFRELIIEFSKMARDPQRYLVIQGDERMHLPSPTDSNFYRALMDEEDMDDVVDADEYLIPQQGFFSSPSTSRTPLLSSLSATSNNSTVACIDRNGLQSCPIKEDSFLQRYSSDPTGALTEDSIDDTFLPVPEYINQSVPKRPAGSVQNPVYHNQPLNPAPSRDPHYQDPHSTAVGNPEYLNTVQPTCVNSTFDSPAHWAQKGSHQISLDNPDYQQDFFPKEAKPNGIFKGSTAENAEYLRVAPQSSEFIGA
metric: pKd

                                smiles_code  metric  reading
0  NC(=O)c1ccc(-c2nc(-c3ccc4c(c3)OCO4)c(-c3ccccn3)[nH]2)cc1     pKd   < 5.00
1  Nc1nc(Nc2ccc(S(N)(=O)=O)cc2)nn1C(=O)c1c(F)cccc1F     pKd   < 5.00

====

# NUAK family SNF1-like kinase 2 (Homo sapiens): Kd values follow
# Sequence (Q9H093 whole entry): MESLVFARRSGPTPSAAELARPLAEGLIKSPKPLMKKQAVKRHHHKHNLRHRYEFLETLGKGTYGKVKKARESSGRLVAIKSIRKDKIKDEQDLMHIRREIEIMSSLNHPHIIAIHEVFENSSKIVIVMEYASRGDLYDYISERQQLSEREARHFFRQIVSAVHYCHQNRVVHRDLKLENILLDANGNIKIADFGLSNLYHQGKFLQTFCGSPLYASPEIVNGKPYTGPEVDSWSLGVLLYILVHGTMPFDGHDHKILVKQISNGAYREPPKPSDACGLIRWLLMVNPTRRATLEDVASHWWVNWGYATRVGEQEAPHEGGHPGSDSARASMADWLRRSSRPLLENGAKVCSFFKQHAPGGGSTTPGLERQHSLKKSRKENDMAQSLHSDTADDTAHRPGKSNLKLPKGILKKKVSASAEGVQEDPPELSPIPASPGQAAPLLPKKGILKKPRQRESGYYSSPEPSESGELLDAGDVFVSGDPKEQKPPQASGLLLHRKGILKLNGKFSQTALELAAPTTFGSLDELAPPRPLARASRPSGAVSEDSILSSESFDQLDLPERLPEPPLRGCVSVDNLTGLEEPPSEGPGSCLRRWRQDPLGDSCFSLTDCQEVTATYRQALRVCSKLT
metric: Kd

In [3]: df
Out[3]:
                                smiles_code     reading
0  COCC(=O)NC/C=C/c1ccc2ncnc(Nc3ccc(Oc4ccc(C)nc4)c(C)c3)c2c1  > 10000 nM
1  Oc1ccc(-c2nc(-c3ccncc3)c(-c3ccc(F)cc3)[nH]2)cc1  > 10000 nM
2  CCOc1cc2ncc(C#N)c(Nc3ccc(F)c(Cl)c3)c2cc1NC(=O)/C=C/CN(C)C     2700 nM
3  NC(=O)c1ccc(-c2nc(-c3ccc4c(c3)OCO4)c(-c3ccccn3)[nH]2)cc1  > 10000 nM
4  Nc1nc(Nc2ccc(S(N)(=O)=O)cc2)nn1C(=O)c1c(F)cccc1F       26 nM

====

compounds and their reported pKd
molecular target: Maternal embryonic leucine zipper kinase (Homo sapiens)
Sequence (Q14680 whole entry): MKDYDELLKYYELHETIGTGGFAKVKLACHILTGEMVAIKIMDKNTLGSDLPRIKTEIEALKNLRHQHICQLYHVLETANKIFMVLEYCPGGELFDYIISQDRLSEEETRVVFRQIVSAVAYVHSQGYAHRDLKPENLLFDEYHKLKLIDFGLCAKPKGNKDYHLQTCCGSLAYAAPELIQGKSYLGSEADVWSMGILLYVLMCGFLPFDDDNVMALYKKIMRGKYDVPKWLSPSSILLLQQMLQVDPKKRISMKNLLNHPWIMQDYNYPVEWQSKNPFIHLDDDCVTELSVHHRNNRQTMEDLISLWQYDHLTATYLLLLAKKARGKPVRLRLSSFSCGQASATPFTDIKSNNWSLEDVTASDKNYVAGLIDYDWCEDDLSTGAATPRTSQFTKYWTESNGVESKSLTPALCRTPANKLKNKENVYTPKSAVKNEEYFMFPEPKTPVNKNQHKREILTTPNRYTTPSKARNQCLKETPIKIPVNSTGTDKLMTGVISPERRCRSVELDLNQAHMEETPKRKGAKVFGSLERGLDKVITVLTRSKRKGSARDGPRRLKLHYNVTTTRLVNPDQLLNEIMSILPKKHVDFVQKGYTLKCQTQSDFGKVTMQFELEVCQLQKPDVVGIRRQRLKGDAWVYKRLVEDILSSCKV
pKd: −log10 of the molar value.
metric: pKd

>>> df
                                   compound  metric  reading
0  Nc1nc(Nc2ccc(S(N)(=O)=O)cc2)nn1C(=O)c1c(F)cccc1F [JNJ-7706621]     pKd   < 5.00
1  Oc1ccc(-c2nc(-c3ccncc3)c(-c3ccc(F)cc3)[nH]2)cc1 [SB-202190]     pKd   < 5.00
2  COCC(=O)NC/C=C/c1ccc2ncnc(Nc3ccc(Oc4ccc(C)nc4)c(C)c3)c2c1 [CP-724714]     pKd   < 5.00
3  CCOc1cc2ncc(C#N)c(Nc3ccc(F)c(Cl)c3)c2cc1NC(=O)/C=C/CN(C)C [PELITINIB]     pKd   < 5.00
4  NC(=O)c1ccc(-c2nc(-c3ccc4c(c3)OCO4)c(-c3ccccn3)[nH]2)cc1 [SB-431542]     pKd   < 5.00

====

compounds and their reported pKd
molecular target: Serine/threonine-protein kinase D1 (Homo sapiens, UniProt Q15139)
Sequence (Q15139 whole entry): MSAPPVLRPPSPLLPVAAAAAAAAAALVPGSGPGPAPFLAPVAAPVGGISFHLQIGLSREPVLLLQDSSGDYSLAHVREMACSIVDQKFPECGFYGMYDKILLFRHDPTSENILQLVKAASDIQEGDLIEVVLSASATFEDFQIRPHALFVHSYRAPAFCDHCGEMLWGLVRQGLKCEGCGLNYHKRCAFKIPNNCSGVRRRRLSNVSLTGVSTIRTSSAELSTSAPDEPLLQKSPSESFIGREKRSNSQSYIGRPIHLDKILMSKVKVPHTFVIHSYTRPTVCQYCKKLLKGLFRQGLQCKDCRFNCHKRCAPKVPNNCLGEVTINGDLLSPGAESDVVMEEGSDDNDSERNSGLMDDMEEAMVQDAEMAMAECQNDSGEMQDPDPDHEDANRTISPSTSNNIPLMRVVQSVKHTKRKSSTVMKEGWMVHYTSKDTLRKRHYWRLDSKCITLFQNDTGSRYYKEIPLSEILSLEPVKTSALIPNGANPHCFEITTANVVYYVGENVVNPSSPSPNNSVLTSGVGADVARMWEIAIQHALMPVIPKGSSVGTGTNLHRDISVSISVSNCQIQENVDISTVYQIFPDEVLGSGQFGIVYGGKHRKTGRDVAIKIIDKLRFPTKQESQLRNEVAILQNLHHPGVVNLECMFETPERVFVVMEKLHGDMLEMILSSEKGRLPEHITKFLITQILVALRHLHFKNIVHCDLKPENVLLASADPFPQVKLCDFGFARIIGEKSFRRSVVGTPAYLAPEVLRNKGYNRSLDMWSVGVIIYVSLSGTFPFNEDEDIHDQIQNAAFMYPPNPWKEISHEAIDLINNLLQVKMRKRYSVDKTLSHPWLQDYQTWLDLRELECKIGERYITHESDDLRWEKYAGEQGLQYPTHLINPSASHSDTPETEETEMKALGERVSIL
pKd: −log10 of the molar value.
metric: pKd

In [3]: df
Out[3]:
                                smiles_code  reading
0  COCC(=O)NC/C=C/c1ccc2ncnc(Nc3ccc(Oc4ccc(C)nc4)c(C)c3)c2c1   < 5.00
1  CCOc1cc2ncc(C#N)c(Nc3ccc(F)c(Cl)c3)c2cc1NC(=O)/C=C/CN(C)C   < 5.00
2  Oc1ccc(-c2nc(-c3ccncc3)c(-c3ccc(F)cc3)[nH]2)cc1   < 5.00

====

target: Receptor tyrosine-protein kinase erbB-2 (Homo sapiens, UniProt P04626)
Sequence (P04626 whole entry): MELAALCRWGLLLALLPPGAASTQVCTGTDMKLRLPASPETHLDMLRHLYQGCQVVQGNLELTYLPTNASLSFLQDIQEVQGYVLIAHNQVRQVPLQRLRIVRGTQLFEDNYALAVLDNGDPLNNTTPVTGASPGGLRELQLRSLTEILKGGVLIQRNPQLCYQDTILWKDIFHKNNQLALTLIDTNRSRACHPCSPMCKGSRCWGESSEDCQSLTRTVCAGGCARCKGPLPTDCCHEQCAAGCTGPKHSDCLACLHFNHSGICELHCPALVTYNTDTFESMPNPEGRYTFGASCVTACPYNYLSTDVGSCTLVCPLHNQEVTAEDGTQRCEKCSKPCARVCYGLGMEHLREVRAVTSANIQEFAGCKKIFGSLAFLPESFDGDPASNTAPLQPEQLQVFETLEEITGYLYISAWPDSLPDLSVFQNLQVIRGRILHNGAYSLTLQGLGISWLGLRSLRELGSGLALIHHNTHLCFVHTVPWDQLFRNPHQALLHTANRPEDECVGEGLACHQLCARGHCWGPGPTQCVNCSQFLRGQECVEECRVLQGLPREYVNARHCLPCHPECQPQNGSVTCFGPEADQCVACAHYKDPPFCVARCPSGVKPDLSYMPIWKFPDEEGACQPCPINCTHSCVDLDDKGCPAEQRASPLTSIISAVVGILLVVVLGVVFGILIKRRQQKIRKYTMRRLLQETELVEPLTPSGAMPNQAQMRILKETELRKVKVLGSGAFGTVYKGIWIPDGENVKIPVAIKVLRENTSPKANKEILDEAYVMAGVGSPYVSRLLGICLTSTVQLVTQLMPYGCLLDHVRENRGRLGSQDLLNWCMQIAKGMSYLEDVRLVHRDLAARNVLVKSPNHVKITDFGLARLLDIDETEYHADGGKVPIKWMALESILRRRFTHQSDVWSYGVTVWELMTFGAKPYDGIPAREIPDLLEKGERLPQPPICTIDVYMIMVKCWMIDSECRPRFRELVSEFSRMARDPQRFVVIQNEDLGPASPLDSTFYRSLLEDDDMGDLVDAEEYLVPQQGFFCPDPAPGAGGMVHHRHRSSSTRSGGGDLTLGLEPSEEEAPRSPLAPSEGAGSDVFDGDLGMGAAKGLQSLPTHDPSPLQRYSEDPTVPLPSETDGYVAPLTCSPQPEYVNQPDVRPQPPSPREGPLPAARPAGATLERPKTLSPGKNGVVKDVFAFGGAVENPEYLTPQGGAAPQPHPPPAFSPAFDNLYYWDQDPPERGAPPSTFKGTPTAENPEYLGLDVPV
metric: Kd

In [3]: df
Out[3]:
                                smiles_code                           target_of_assay  reading
0  CCOc1cc2ncc(C#N)c(Nc3ccc(F)c(Cl)c3)c2cc1NC(=O)/C=C/CN(C)C  Receptor tyrosine-protein kinase erbB-2 (Homo sapiens, UniProt P04626)   0.5 µM
1  Oc1ccc(-c2nc(-c3ccncc3)c(-c3ccc(F)cc3)[nH]2)cc1  Receptor tyrosine-protein kinase erbB-2 (Homo sapiens, UniProt P04626)  > 10 µM
2  Nc1nc(Nc2ccc(S(N)(=O)=O)cc2)nn1C(=O)c1c(F)cccc1F  Receptor tyrosine-protein kinase erbB-2 (Homo sapiens, UniProt P04626)  > 10 µM
3  NC(=O)c1ccc(-c2nc(-c3ccc4c(c3)OCO4)c(-c3ccccn3)[nH]2)cc1  Receptor tyrosine-protein kinase erbB-2 (Homo sapiens, UniProt P04626)  > 10 µM
